measured-on: T1, HLA-A*03:01 (human)
T1 construct: MHC class I monomer first loaded with a UV-sensitive peptide that is cleaved by UV irradiation and exchanged for the test peptide; captured on streptavidin plates; also called peptide-receptive MHC molecules
test-details: UV-ligand exchange, anti-b2m ELISA; peptide exchange yield grade (>10% +, >20% ++, >50% +++, >75% ++++)
Description: Candidate peptides for T cell based therapies according to the present invention were further tested for their MHC binding capacity (affinity). The individual peptide-MHC complexes were produced by UV-ligand exchange, where a UV-sensitive peptide is cleaved upon UV-irradiation and exchanged with the peptide of interest as analyzed. Only peptide candidates that can effectively bind and stabilize the peptide-receptive MHC molecules prevent dissociation of the MHC complexes. […]
Please respond with reported peptide exchange yield for every item in the list.

Sure, the documented peptide exchange yield for HMDEFKRTQK is 50 to 75%

Sure, the documented peptide exchange yield for RLYDAYVNR is > 75%

Sure, the documented peptide exchange yield for RIGNKGIYK is 50 to 75%

Sure, the documented peptide exchange yield for RMGFRTLSK is > 75%
